TARGET_OR_SYSTEM: meprin β (Homo sapiens)
Sequence (Q16820 62-594 limits assumed): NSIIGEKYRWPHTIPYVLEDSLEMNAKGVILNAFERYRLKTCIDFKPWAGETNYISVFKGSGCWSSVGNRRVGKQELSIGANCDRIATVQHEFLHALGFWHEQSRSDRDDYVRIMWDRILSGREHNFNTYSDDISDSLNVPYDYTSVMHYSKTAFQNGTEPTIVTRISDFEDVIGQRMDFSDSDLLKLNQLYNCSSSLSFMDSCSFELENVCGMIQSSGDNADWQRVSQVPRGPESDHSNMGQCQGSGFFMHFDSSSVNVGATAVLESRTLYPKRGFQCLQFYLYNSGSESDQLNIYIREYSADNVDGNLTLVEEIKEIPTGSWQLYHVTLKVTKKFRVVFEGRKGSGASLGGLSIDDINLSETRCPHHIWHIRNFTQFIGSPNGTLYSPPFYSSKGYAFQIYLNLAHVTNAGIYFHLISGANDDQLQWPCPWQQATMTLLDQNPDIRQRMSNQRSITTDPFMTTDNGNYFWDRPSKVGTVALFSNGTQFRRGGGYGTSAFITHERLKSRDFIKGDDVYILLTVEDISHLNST
ASSAY_SUMMARY: Meprin β assay, fluorogenic substrate (Mca)-EDEDED-(K-ε-Dnp), 384 and 1536 well plate formats
Assay type: biochemical
CONDITION: triplicate, 10-point, 3:1 serial dilution, highest concentration 17.4 µM; read-out: Meprin β IC50
QUANTITY_MEASURED: IC50

INSERT INTO results (compound_string, target_or_system, quantity_measured, result) VALUES
  ('O=C(CCN(Cc1ccccc1)S(=O)(=O)c1ccc(F)cc1)NO', 'meprin β (Homo sapiens)', 'IC50', '> 17 µM'),
  ('O=C(CCN(Cc1cccs1)S(=O)(=O)c1ccc([N+](=O)[O-])cc1)NO', 'meprin β (Homo sapiens)', 'IC50', '> 17 µM'),
  ('COc1ccc(-n2c(CSc3ncccn3)nnc2SCC(=O)NO)cc1', 'meprin β (Homo sapiens)', 'IC50', '> 17 µM');
